# TESTED_SYSTEM: T1, Ac-VQIINK-NH2
# T1 peptide: Ac-VQIINK-NH2
# MEASUREMENT_NOTES: cell-based or functional assay
MEASUREMENT_KIND: IC50 (µM), VQIINK Inhibition (ThT)
Give just the number in µM; leave the unit off.

Known IC50 (µM), VQIINK Inhibition (ThT) results, listed for orientation:
>  <BINDER>
KIRLYWW

>  <IC50 (µM), VQIINK Inhibition (ThT)>
2.86

$$$$
>  <BINDER>
FRIWIRYF

>  <IC50 (µM), VQIINK Inhibition (ThT)>
4.64

$$$$

Quick note, IC50 (µM), VQIINK Inhibition (ThT) for "RIRIRW" landed at 10.8

Query "RLRIWIW" yields IC50 (µM), VQIINK Inhibition (ThT) of 2.04

IC50 (µM), VQIINK Inhibition (ThT) reading for "IRIRWRW" : 4.86

// field: IC50 (µM), VQIINK Inhibition (ThT); key: "RIRIFIW" ; value = 1.57

Record "RIRIWVW" , field IC50 (µM), VQIINK Inhibition (ThT): 2.3

IC50 (µM), VQIINK Inhibition (ThT) in this record for "WRLRIHW" : 3.2

Per the record, "WWIRIRYWL" has IC50 (µM), VQIINK Inhibition (ThT) of 4.88
